We begin with a simple list: items and their reported pest or weed control at 31 g/ha.
- System: pigweed (Amaranthus retroflexus)
- test.protocol: Test A postemergence, pigweed
- Format: in vivo
- recorded.conditions: Amaranthus retroflexus, post-emergence, 240 h, 31 g ai/ha, 0 to 100 scale (0 no effect, 100 complete control), read-out: Plant response rating, Pigweed

compound: CN1C(=O)c2cccc(Oc3ncc(Cl)cn3)c2C1CCCC(F)(F)F (stereo not shown)
assay.target: pigweed (Amaranthus retroflexus)
unit.abbreviation: %
pest or weed control at 31 g/ha: 0

compound: FC(F)(F)CCCC1OCCc2cccc(Oc3ncc(Cl)cn3)c21 (stereo not shown)
assay.target: pigweed (Amaranthus retroflexus)
unit.abbreviation: %
pest or weed control at 31 g/ha: 50

compound: FC(F)(F)CC[C@H]1OCc2cccc(Oc3ncc(Cl)cn3)c21
assay.target: pigweed (Amaranthus retroflexus)
unit.abbreviation: %
pest or weed control at 31 g/ha: 100

compound: FC(F)(F)CCCC1CCc2cccc(Oc3ncc(Cl)cn3)c21 (stereo not shown)
assay.target: pigweed (Amaranthus retroflexus)
unit.abbreviation: %
pest or weed control at 31 g/ha: 80

compound: CCCC1OC(=O)Cc2cccc(Oc3ncc(Cl)cn3)c21 (stereo not shown)
assay.target: pigweed (Amaranthus retroflexus)
unit.abbreviation: %
pest or weed control at 31 g/ha: 30

compound: FC(F)(F)CC[C@@H]1OCc2cccc(Oc3ncc(Cl)cn3)c21
assay.target: pigweed (Amaranthus retroflexus)
unit.abbreviation: %
pest or weed control at 31 g/ha: 20

compound: FC(F)(F)CCC1OCCc2cccc(Oc3ncc(Cl)cn3)c21 (stereo not shown)
assay.target: pigweed (Amaranthus retroflexus)
unit.abbreviation: %
pest or weed control at 31 g/ha: 20

compound: O=C1OCC(CCC(F)(F)F)c2c(Oc3ncc(Cl)cn3)cccc21 (stereo not shown)
assay.target: pigweed (Amaranthus retroflexus)
unit.abbreviation: %
pest or weed control at 31 g/ha: 30

compound: O=C1c2cccc(Oc3ncc(Cl)cn3)c2C1CCCC(F)(F)F (stereo not shown)
assay.target: pigweed (Amaranthus retroflexus)
unit.abbreviation: %
pest or weed control at 31 g/ha: 30

compound: O=C1Cc2cccc(Oc3ncc(Cl)cn3)c2C(CCC(F)(F)F)O1 (stereo not shown)
assay.target: pigweed (Amaranthus retroflexus)
unit.abbreviation: %
pest or weed control at 31 g/ha: 30

compound: FC(F)(F)CCC1OCc2cccc(Oc3ncc(Cl)cn3)c21 (stereo not shown)
assay.target: pigweed (Amaranthus retroflexus)
unit.abbreviation: %
pest or weed control at 31 g/ha: 100

compound: O=C1Cc2cccc(Oc3ncc(Cl)cn3)c2C(CCCC(F)(F)F)O1 (stereo not shown)
assay.target: pigweed (Amaranthus retroflexus)
unit.abbreviation: %
pest or weed control at 31 g/ha: 50

compound: O=C1CCC(CCCC(F)(F)F)c2c(Oc3ncc(Cl)cn3)cccc21 (stereo not shown)
assay.target: pigweed (Amaranthus retroflexus)
unit.abbreviation: %
pest or weed control at 31 g/ha: 70

----------
- Tested on: foxtail, green (green foxtail, Setaria viridis)
- test.protocol: Test A preemergence, foxtail, green
- Format: in vivo
- recorded.conditions: Setaria, pre-emergence, 240 h, 125 g ai/ha, 0 to 100 scale (0 no effect, 100 complete control), read-out: Plant response rating, Foxtail, Green
We begin with a simple list: items and their reported pest or weed control at 125 g/ha.

compound: CN1C(=O)c2cccc(Oc3ncc(Cl)cn3)c2C1CCCC(F)(F)F (centres unmarked)
pest or weed control at 125 g/ha / %: 0

compound: O=C1CC(CCC(F)(F)F)c2c(Oc3ncc(Cl)cn3)cccc21 (centres unmarked)
pest or weed control at 125 g/ha / %: 70

compound: O=C1COC(CCCC(F)(F)F)c2c(Oc3ncc(Cl)cn3)cccc21 (centres unmarked)
pest or weed control at 125 g/ha / %: 0

compound: FC(F)(F)CCCC1CCc2cccc(Oc3ncc(Cl)cn3)c21 (centres unmarked)
pest or weed control at 125 g/ha / %: 100

compound: O=C1O[C@@H](CCCC(F)(F)F)c2c(Oc3ncc(Cl)cn3)cccc21
pest or weed control at 125 g/ha / %: 30

compound: FC(F)(F)CCC1OCc2cccc(Oc3ncc(Cl)cn3)c21 (centres unmarked)
pest or weed control at 125 g/ha / %: 100

compound: OC1CC(CCCC(F)(F)F)c2c(Oc3ncc(Cl)cn3)cccc21 (centres unmarked)
pest or weed control at 125 g/ha / %: 90

compound: CCCC1OC(=O)Cc2cccc(Oc3ncc(Cl)cn3)c21 (centres unmarked)
pest or weed control at 125 g/ha / %: 10

compound: FC(F)(F)CCCC1OCc2cccc(Oc3ncc(Cl)cn3)c21 (centres unmarked)
pest or weed control at 125 g/ha / %: 100

compound: O=C1OC(CCC(F)(F)F)c2c(Oc3ncc(Cl)cn3)cccc21 (centres unmarked)
pest or weed control at 125 g/ha / %: 100

compound: O=C1O[C@H](CCCC(F)(F)F)c2c(Oc3ncc(Cl)cn3)cccc21
pest or weed control at 125 g/ha / %: 100

compound: O=C1NC(CCCC(F)(F)F)c2c(Oc3ncc(Cl)cn3)cccc21 (centres unmarked)
pest or weed control at 125 g/ha / %: 0

compound: OC1(CCC(F)(F)F)CCc2cccc(Oc3ncc(Cl)cn3)c21 (centres unmarked)
pest or weed control at 125 g/ha / %: 40

compound: O=C1OC(CCCC(F)(F)F)c2c(Oc3ncc(Cl)cn3)cccc21 (centres unmarked)
pest or weed control at 125 g/ha / %: 100

----------
We begin with a simple list: items and their reported pest or weed control at 31 g/ha.
- Test system: pigweed (Amaranthus retroflexus)
- test.protocol: Test A postemergence, pigweed
- Format: in vivo
- recorded.conditions: Amaranthus retroflexus, post-emergence, 240 h, 31 g ai/ha, 0 to 100 scale (0 no effect, 100 complete control), read-out: Plant response rating, Pigweed
- Description: […]
measure.name: pest or weed control at 31 g/ha (%)

compound: O=C1NC(CCCC(F)(F)F)c2c(Oc3ncc(Cl)cn3)cccc21 (stereo not drawn)
assay.target: pigweed (Amaranthus retroflexus)
measure.name: pest or weed control at 31 g/ha
observed: 0
//
compound: O=C1OCc2cccc(Oc3ncc(Cl)cn3)c2C1CCCC(F)(F)F (stereo not drawn)
assay.target: pigweed (Amaranthus retroflexus)
measure.name: pest or weed control at 31 g/ha
observed: 30
//
compound: O=C1O[C@@H](CCCC(F)(F)F)c2c(Oc3ncc(Cl)cn3)cccc21
assay.target: pigweed (Amaranthus retroflexus)
measure.name: pest or weed control at 31 g/ha
observed: 10
//
compound: O=C1OC(CCCCC(F)(F)F)Cc2c(Oc3ncc(Cl)cn3)cccc21 (stereo not drawn)
assay.target: pigweed (Amaranthus retroflexus)
measure.name: pest or weed control at 31 g/ha
observed: 40
//
compound: O=C1O[C@@H](CCC(F)(F)F)c2c(Oc3ncc(Cl)cn3)cccc21
assay.target: pigweed (Amaranthus retroflexus)
measure.name: pest or weed control at 31 g/ha
observed: 10
//
compound: O=C1OCc2cccc(Oc3ncc(Cl)cn3)c2C1CCC(F)(F)F (stereo not drawn)
assay.target: pigweed (Amaranthus retroflexus)
measure.name: pest or weed control at 31 g/ha
observed: 30
//
compound: O=C1CC(CCC(F)(F)F)c2c(Oc3ncc(Cl)cn3)cccc21 (stereo not drawn)
assay.target: pigweed (Amaranthus retroflexus)
measure.name: pest or weed control at 31 g/ha
observed: 40
//
compound: O=C1O[C@H](CCCC(F)(F)F)c2c(Oc3ncc(Cl)cn3)cccc21
assay.target: pigweed (Amaranthus retroflexus)
measure.name: pest or weed control at 31 g/ha
observed: 100
//
compound: FC(F)(F)CCCC1OCc2cccc(Oc3ncc(Cl)cn3)c21 (stereo not drawn)
assay.target: pigweed (Amaranthus retroflexus)
measure.name: pest or weed control at 31 g/ha
observed: 80

----------
- Test system: ryegrass, Italian (Italian ryegrass, Lolium multiflorum)
- test.protocol: Test A postemergence, ryegrass, Italian
- Type: in vivo
- recorded.conditions: Lolium multiflorum, post-emergence, 240 h, 125 g ai/ha, 0 to 100 scale (0 no effect, 100 complete control), read-out: Plant response rating, Ryegrass, Italian
Param threshold (40%) applies to pest or weed control at 125 g/ha; output met when value >= threshold, not met when value < threshold.

compound: OC1CC(CCCC(F)(F)F)c2c(Oc3ncc(Cl)cn3)cccc21 (stereo not drawn)
assay.target: ryegrass, Italian (Italian ryegrass, Lolium multiflorum)
class.label: not met
--
compound: FC(F)(F)CC[C@@H]1OCc2cccc(Oc3ncc(Cl)cn3)c21
assay.target: ryegrass, Italian (Italian ryegrass, Lolium multiflorum)
class.label: not met
--
compound: O=C1O[C@H](CCCC(F)(F)F)c2c(Oc3ncc(Cl)cn3)cccc21
assay.target: ryegrass, Italian (Italian ryegrass, Lolium multiflorum)
class.label: met
--
compound: O=C1COC(CCCC(F)(F)F)c2c(Oc3ncc(Cl)cn3)cccc21 (stereo not drawn)
assay.target: ryegrass, Italian (Italian ryegrass, Lolium multiflorum)
class.label: not met
--
compound: FC(F)(F)CCC1COc2cccc(Oc3ncc(Cl)cn3)c21 (stereo not drawn)
assay.target: ryegrass, Italian (Italian ryegrass, Lolium multiflorum)
class.label: not met
--
compound: FC(F)(F)CC[C@H]1OCc2cccc(Oc3ncc(Cl)cn3)c21
assay.target: ryegrass, Italian (Italian ryegrass, Lolium multiflorum)
class.label: met
--
compound: FC(F)(F)CCC1OCCc2cccc(Oc3ncc(Cl)cn3)c21 (stereo not drawn)
assay.target: ryegrass, Italian (Italian ryegrass, Lolium multiflorum)
class.label: not met
--
compound: O=C1OCc2cccc(Oc3ncc(Cl)cn3)c2C1CCCCC(F)(F)F (stereo not drawn)
assay.target: ryegrass, Italian (Italian ryegrass, Lolium multiflorum)
class.label: not met

Recorded values, source patent US11427549B2.
